- Tested on: E. coli TESEC Mtb Alr
- assayProtocol: growth (OD600 after 10 h); higher = more growth (less inhibition)
- assaySetup: arabinose 1000 nM; compound 0.1 mM; raw OD600 reference: median of DMSO wells 0.294, cell-free background 0.041
Counter-ions that a name gives are not always drawn.
# growth values compiled below
measuredParameter: growth

molecule="CCOC(=O)C1=C(C)NC(C)=C(C(=O)OC)C1c1cccc([N+](=O)[O-])c1 (stereo unspecified)" systemtested="E. coli TESEC Mtb Alr" measuredparameter=growth recordedresult=0.224
molecule="CC(C)[C@H](N)C(=O)OCCOCn1cnc2c(=O)nc(N)[nH]c21 [Valacyclovir hydrochloride]" systemtested="E. coli TESEC Mtb Alr" measuredparameter=growth recordedresult=0.302
molecule="CCN(CCCCOC(=O)c1ccc(OC)c(OC)c1)C(C)Cc1ccc(OC)cc1 (stereo unspecified) [Mebeverine hydrochloride]" systemtested="E. coli TESEC Mtb Alr" measuredparameter=growth recordedresult=0.231
molecule="Cc1cccc(C)c1NC(=O)C(C)N (stereo unspecified) [Tocainide hydrochloride]" systemtested="E. coli TESEC Mtb Alr" measuredparameter=growth recordedresult=0.318
molecule="Cc1c(C)c2c(c(C)c1O)CCC(C)(C(=O)O)O2 (stereo unspecified)" systemtested="E. coli TESEC Mtb Alr" measuredparameter=growth recordedresult=0.295
molecule="NS(=O)(=O)c1cc2c(cc1Cl)N=CNS2(=O)=O [Chlorothiazide]" systemtested="E. coli TESEC Mtb Alr" measuredparameter=growth recordedresult=0.29
molecule="Cc1onc(-c2c(Cl)cccc2Cl)c1C(=O)N[C@@H]1C(=O)N2[C@@H]1SC(C)(C)[C@@H]2C(=O)O [Dicloxacillin sodium salt hydrate]" systemtested="E. coli TESEC Mtb Alr" measuredparameter=growth recordedresult=0.226
molecule="OCCN1CCN(CCCN2c3ccccc3Sc3ccc(C(F)(F)F)cc32)CC1 [Fluphenazine dihydrochloride]" systemtested="E. coli TESEC Mtb Alr" measuredparameter=growth recordedresult=0.041
molecule=CC(C)(C)CC(C)(C)c1ccc(OCOCCOCCO)c(Cc2cc(C(C)(C)CC(C)(C)C)cc(Cc3cc(C(C)(C)CC(C)(C)C)ccc3OCOCCOCCO)c2OCOCCOCCO)c1 systemtested="E. coli TESEC Mtb Alr" measuredparameter=growth recordedresult=0.323
molecule=CC(C)C[C@H](NC(=O)[C@@H](O)[C@H](N)Cc1ccccc1)C(=O)O systemtested="E. coli TESEC Mtb Alr" measuredparameter=growth recordedresult=0.28
molecule="O=C(O)[C@H]1/C(=C/CO)O[C@@H]2CC(=O)N21 [Clavulanate potassium salt]" systemtested="E. coli TESEC Mtb Alr" measuredparameter=growth recordedresult=0.0502
molecule="CC(C)COCC(CN(Cc1ccccc1)c1ccccc1)N1CCCC1 (stereo unspecified) [Bepridil hydrochloride]" systemtested="E. coli TESEC Mtb Alr" measuredparameter=growth recordedresult=0.0395
molecule=O=C(O)CCC(=O)c1ccc(-c2ccccc2)cc1 systemtested="E. coli TESEC Mtb Alr" measuredparameter=growth recordedresult=0.232
molecule=Nc1ccn([C@@H]2O[C@H](CO)[C@@H](O)[C@@H]2O)c(=O)n1 systemtested="E. coli TESEC Mtb Alr" measuredparameter=growth recordedresult=0.307
molecule=O=C(Cn1ccnc1[N+](=O)[O-])NCCO systemtested="E. coli TESEC Mtb Alr" measuredparameter=growth recordedresult=0.306
molecule="CC1(C)S[C@@H]2[C@H](NC(=O)[C@H](N)c3ccccc3)C(=O)N2[C@H]1C(=O)O [Ampicillin trihydrate]" systemtested="E. coli TESEC Mtb Alr" measuredparameter=growth recordedresult=0.279
molecule=CC(=O)Oc1cc(C(F)(F)F)ccc1C(=O)O systemtested="E. coli TESEC Mtb Alr" measuredparameter=growth recordedresult=0.275
molecule="CC(CCc1ccc(O)cc1)NCCc1ccc(O)c(O)c1 (stereo unspecified) [Dobutamine hydrochloride]" systemtested="E. coli TESEC Mtb Alr" measuredparameter=growth recordedresult=0.227
molecule="CN(C)CCOC(c1ccccc1)c1ccccc1.Cn1c(=O)c2[nH]c(Cl)nc2n(C)c1=O [Dimenhydrinate]" systemtested="E. coli TESEC Mtb Alr" measuredparameter=growth recordedresult=0.255
molecule="O=C(CCNNC(=O)c1ccncc1)NCc1ccccc1 [Nialamide]" systemtested="E. coli TESEC Mtb Alr" measuredparameter=growth recordedresult=0.28
molecule="CN1CCC(OC(c2ccccc2)c2ccccc2)CC1 [Diphenylpyraline hydrochloride]" systemtested="E. coli TESEC Mtb Alr" measuredparameter=growth recordedresult=0.294
molecule="CO[C@@]1(NC(=O)C(C(=O)O)c2ccc(O)cc2)C(=O)N2C(C(=O)O)=C(CSc3nnnn3C)CO[C@@H]21 (stereo partly specified) [Moxalactam disodium salt]" systemtested="E. coli TESEC Mtb Alr" measuredparameter=growth recordedresult=0.0445
molecule=Oc1ccc(OCc2ccccc2)cc1 systemtested="E. coli TESEC Mtb Alr" measuredparameter=growth recordedresult=0.213
molecule="CCCCN1CCCCC1C(=O)Nc1c(C)cccc1C (stereo unspecified) [Bupivacaine hydrochloride]" systemtested="E. coli TESEC Mtb Alr" measuredparameter=growth recordedresult=0.301
molecule="CC1COc2c(N3CCN(C)CC3)c(F)cc3c(=O)c(C(=O)O)cn1c23 (stereo unspecified)" systemtested="E. coli TESEC Mtb Alr" measuredparameter=growth recordedresult=0.0426
molecule="COc1c(O[C@@H]2O[C@H](CO)[C@@H](O)[C@H](O)[C@H]2O)cc2c(c1OC)-c1ccc(SC)c(=O)cc1[C@@H](NC(C)=O)CC2 [Thiocolchicoside]" systemtested="E. coli TESEC Mtb Alr" measuredparameter=growth recordedresult=0.307

----------
- Tested on: E. coli TESEC Mtb Alr
- assayProtocol: growth (OD600 after 10 h); higher = more growth (less inhibition)
- assaySetup: arabinose 10000000 nM; compound 0.1 mM; raw OD600 reference: median of DMSO wells 0.146, cell-free background 0.041
Where a name gives a salt, the structure may show the parent alone.
In this section, each of the compounds is paired with its reported growth.
measuredParameter: growth

compound="Clc1ccccc1C(c1ccccc1)(c1ccccc1)n1ccnc1 [Clotrimazole]" measuredparameter=growth recordedresult=0.0448
compound="CCCOc1ccc(C(=O)OCCN(CC)CC)cc1N [Proparacaine hydrochloride]" measuredparameter=growth recordedresult=0.153
compound="O=C1[C@H](CC[C@H](O)c2ccc(F)cc2)[C@@H](c2ccc(O)cc2)N1c1ccc(F)cc1 [Ezetimibe]" measuredparameter=growth recordedresult=0.0501
compound="C[C@]12C=CC(=O)C=C1CC[C@@H]1[C@@H]2C(=O)C[C@@]2(C)[C@H]1CC[C@]2(O)C(=O)CO [Prednisone]" measuredparameter=growth recordedresult=0.162
compound="CCCCNc1c(C(=O)OCC)c(C)nc2c1cnn2CC [Tracazolate hydrochloride]" measuredparameter=growth recordedresult=0.168
compound="CCCCc1ccc2[nH]c(NC(=O)OC)nc2c1 [Parbendazole]" measuredparameter=growth recordedresult=0.156
compound="CC(C)(C)CC(C)(C)c1ccc(OCCOCC[N+](C)(C)Cc2ccccc2)cc1 [Benzethonium chloride]" measuredparameter=growth recordedresult=0.0418
compound="C[C@]12CC[C@@H]3c4ccc(O)cc4CC[C@H]3[C@@H]1C[C@@H](O)[C@@H]2O [Estriol]" measuredparameter=growth recordedresult=0.143
compound="CC(=O)Oc1ccccc1C(=O)Nc1ncc([N+](=O)[O-])s1 [Nitazoxanide]" measuredparameter=growth recordedresult=0.0448
compound="CCOc1nc2cccc(C(=O)O)c2n1Cc1ccc(-c2ccccc2-c2nnn[nH]2)cc1 [Candesartan]" measuredparameter=growth recordedresult=0.141

----------
- Tested on: E. coli TESEC Mtb Alr
- assayProtocol: growth (OD600 after 10 h); higher = more growth (less inhibition)
- assaySetup: arabinose 10000000 nM; compound 0.1 mM; raw OD600 reference: median of DMSO wells […], cell-free background 0.052
Structures can show the parent of a compound that is named as a salt.
I would appreciate it if you labelled entries 1 (yes) when growth is 0.06 or higher, otherwise 0 (no).

compound="COc1ccc(C[C@@H]2c3cc(OC)c(OC)cc3CC[N@+]2(C)CCC(=O)OCCCCCOC(=O)CC[N@@+]2(C)CCc3cc(OC)c(OC)cc3[C@H]2Cc2ccc(OC)c(OC)c2)cc1OC [Cisatracurium besylate]" classlabel="1 (yes)"
compound=Nc1nc2c(ncn2COCCO)c(=O)[nH]1 classlabel="1 (yes)"
compound="CCC(=O)[C@@]1(C)[C@H](C)C[C@H]2[C@@H]3CCC4=CC(=O)C=C[C@]4(C)[C@H]3[C@@H](O)C[C@@]21C [Rimexolone]" classlabel="1 (yes)"
compound="CSc1ccc2c(c1)N(CCC1CCCCN1C)c1ccccc1S2 (stereo unspecified) [Thioridazine hydrochloride]" classlabel="0 (no)"
compound="Cc1cccc(C)c1OCC(C)N (stereo unspecified) [Mexiletine hydrochloride]" classlabel="1 (yes)"
compound="NCCc1cc[nH]n1 [Betazole hydrochloride]" classlabel="1 (yes)"
compound=Nc1ccn([C@H]2CC[C@@H](CO)O2)c(=O)n1 classlabel="1 (yes)"
compound="NC[C@H]1O[C@H](O[C@H]2[C@H](O[C@@H]3O[C@H](CO)[C@@H](O)[C@H]3O)[C@@H](O)[C@H](N)C[C@@H]2N)[C@H](N)[C@@H](O)[C@@H]1O [Ribostamycin sulfate salt]" classlabel="1 (yes)"
compound=COc1cc2ncnc(Nc3ccc(F)c(Cl)c3)c2cc1OCCCN1CCOCC1 classlabel="0 (no)"
compound=Cc1ccc(C(=O)c2cc(O)c(O)c([N+](=O)[O-])c2)cc1 classlabel="0 (no)"
